Recorded Activity values for a group of compounds are listed next.
# Tested on: Eimeria mitis
# measurement-description: Anticoccidial activity against Eimeria mitis in chickens assessed as reduction of oocysts at 12.5 ppm measured after 8 days by ExMAC assay relative to untreated control
# Type: functional
# Parameters: scale not given: the % may be the effect or the level left
measurement-type: Activity

[[record]]
compound = "CN(CCO)Cc1ccn2c(-c3ccnc(N)n3)c(-c3ccc(F)cc3)nc2c1"
study_target = "Eimeria mitis"
measurement_type = "Activity"
endpoint_value = "<50%"

[[record]]
compound = "CN(C)Cc1ccn2c(-c3ccnc(N)n3)c(-c3ccc(F)cc3)nc2c1"
study_target = "Eimeria mitis"
measurement_type = "Activity"
endpoint_value = "80%"

[[record]]
compound = "CCCCCCN1CCC(c2ccn3c(-c4ccnc(N)n4)c(-c4ccc(F)cc4)nc3c2)CC1"
study_target = "Eimeria mitis"
measurement_type = "Activity"
endpoint_value = "<50%"

[[record]]
compound = "CC(C)CN1CCC(c2ccn3c(-c4ccnc(N)n4)c(-c4ccc(F)cc4)nc3c2)CC1"
study_target = "Eimeria mitis"
measurement_type = "Activity"
endpoint_value = "80%"

[[record]]
compound = "CN1CCN(Cc2ccn3c(-c4ccnc(N)n4)c(-c4ccc(F)cc4)nc3c2)CC1"
study_target = "Eimeria mitis"
measurement_type = "Activity"
endpoint_value = "<50%"

[[record]]
compound = "CCN1CCC(c2ccn3c(-c4ccnc(N)n4)c(-c4ccc(F)cc4)nc3c2)CC1"
study_target = "Eimeria mitis"
measurement_type = "Activity"
endpoint_value = "100%"

[[record]]
compound = "CN(C)CCc1ccn2c(-c3ccnc(N)n3)c(-c3ccc(F)cc3)nc2c1"
study_target = "Eimeria mitis"
measurement_type = "Activity"
endpoint_value = "80%"

[[record]]
compound = "Nc1nccc(-c2c(-c3ccc(F)cc3)nc3cc(C4CCN(CCc5ccccc5)CC4)ccn23)n1"
study_target = "Eimeria mitis"
measurement_type = "Activity"
endpoint_value = "<50%"

[[record]]
compound = "Nc1nccc(-c2c(-c3ccc(F)cc3)nc3cc(C4CCN(CCCO)CC4)ccn23)n1"
study_target = "Eimeria mitis"
measurement_type = "Activity"
endpoint_value = "<50%"

[[record]]
compound = "CN(C)CC(F)c1ccn2c(-c3ccnc(N)n3)c(-c3ccc(F)cc3)nc2c1 (stereo unspecified)"
study_target = "Eimeria mitis"
measurement_type = "Activity"
endpoint_value = "50%"

[[record]]
compound = "CN1CCN(c2ccn3c(-c4ccnc(N)n4)c(-c4ccc(F)cc4)nc3c2)CC1"
study_target = "Eimeria mitis"
measurement_type = "Activity"
endpoint_value = "50%"

[[record]]
compound = "CCN(CC)Cc1ccn2c(-c3ccnc(N)n3)c(-c3ccc(F)cc3)nc2c1"
study_target = "Eimeria mitis"
measurement_type = "Activity"
endpoint_value = "<50%"

[[record]]
compound = "CCC(c1ccn2c(-c3ccnc(N)n3)c(-c3ccc(F)cc3)nc2c1)N(C)C (stereo unspecified)"
study_target = "Eimeria mitis"
measurement_type = "Activity"
endpoint_value = "100%"

[[record]]
compound = "CCCC(c1ccn2c(-c3ccnc(N)n3)c(-c3ccc(F)cc3)nc2c1)N(C)C (stereo unspecified)"
study_target = "Eimeria mitis"
measurement_type = "Activity"
endpoint_value = "<50%"

[[record]]
compound = "CN1CCC(c2ccn3c(-c4ccnc(N)n4)c(-c4ccc(F)cc4)nc3c2)CC1"
study_target = "Eimeria mitis"
measurement_type = "Activity"
endpoint_value = "100%"

[[record]]
compound = "C#CCN(C)Cc1ccn2c(-c3ccnc(N)n3)c(-c3ccc(F)cc3)nc2c1"
study_target = "Eimeria mitis"
measurement_type = "Activity"
endpoint_value = "<50%"

[[record]]
compound = "COCCN(C)Cc1ccn2c(-c3ccnc(N)n3)c(-c3ccc(F)cc3)nc2c1"
study_target = "Eimeria mitis"
measurement_type = "Activity"
endpoint_value = "<50%"

[[record]]
compound = "CN(C)CCCc1ccn2c(-c3ccnc(N)n3)c(-c3ccc(F)cc3)nc2c1"
study_target = "Eimeria mitis"
measurement_type = "Activity"
endpoint_value = "<50%"

[[record]]
compound = "CCC(C)CN1CCC(c2ccn3c(-c4ccnc(N)n4)c(-c4ccc(F)cc4)nc3c2)CC1 (stereo unspecified)"
study_target = "Eimeria mitis"
measurement_type = "Activity"
endpoint_value = "<50%"

[[record]]
compound = "CN(C)CC(C)(C)c1ccn2c(-c3ccnc(N)n3)c(-c3ccc(F)cc3)nc2c1"
study_target = "Eimeria mitis"
measurement_type = "Activity"
endpoint_value = "<50%"

[[record]]
compound = "CC(C)(C)CCN1CCC(c2ccn3c(-c4ccnc(N)n4)c(-c4ccc(F)cc4)nc3c2)CC1"
study_target = "Eimeria mitis"
measurement_type = "Activity"
endpoint_value = "<50%"

